Measured On: EGFR L858R/T790M/C797S (Homo sapiens, UniProt P00533, C797S/L858R/T790M)
Sequence (P00533 25-1210 T790M/C797S/L858R): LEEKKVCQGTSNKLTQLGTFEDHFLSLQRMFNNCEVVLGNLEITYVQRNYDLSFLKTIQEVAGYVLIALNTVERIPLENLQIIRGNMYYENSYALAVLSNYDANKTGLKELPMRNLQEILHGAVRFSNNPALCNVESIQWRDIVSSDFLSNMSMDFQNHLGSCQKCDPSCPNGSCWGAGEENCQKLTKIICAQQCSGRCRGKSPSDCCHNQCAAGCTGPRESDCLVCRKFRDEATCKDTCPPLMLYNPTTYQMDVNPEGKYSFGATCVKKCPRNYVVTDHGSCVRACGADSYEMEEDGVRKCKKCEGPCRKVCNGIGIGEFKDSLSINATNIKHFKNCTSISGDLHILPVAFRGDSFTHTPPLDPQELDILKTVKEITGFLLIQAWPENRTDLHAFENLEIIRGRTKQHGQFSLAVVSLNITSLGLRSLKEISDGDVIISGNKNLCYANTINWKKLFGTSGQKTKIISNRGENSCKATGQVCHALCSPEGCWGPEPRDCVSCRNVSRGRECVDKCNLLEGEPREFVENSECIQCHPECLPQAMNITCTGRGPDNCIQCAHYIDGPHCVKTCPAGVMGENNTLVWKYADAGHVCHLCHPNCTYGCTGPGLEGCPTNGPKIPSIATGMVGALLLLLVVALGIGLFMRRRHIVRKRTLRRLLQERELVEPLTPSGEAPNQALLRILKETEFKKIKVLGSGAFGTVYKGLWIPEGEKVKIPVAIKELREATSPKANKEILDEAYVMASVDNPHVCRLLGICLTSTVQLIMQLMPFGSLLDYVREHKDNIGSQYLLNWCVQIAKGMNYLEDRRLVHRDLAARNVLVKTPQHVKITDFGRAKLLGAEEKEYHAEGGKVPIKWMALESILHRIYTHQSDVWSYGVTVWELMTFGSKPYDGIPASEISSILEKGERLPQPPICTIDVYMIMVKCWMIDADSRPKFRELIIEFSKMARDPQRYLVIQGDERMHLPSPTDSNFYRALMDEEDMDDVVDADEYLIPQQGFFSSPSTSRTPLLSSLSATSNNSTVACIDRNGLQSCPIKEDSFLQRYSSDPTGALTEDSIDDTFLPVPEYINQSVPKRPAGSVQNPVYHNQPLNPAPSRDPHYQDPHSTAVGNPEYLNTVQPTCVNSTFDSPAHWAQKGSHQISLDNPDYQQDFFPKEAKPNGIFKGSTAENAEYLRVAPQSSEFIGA
Experimental Protocol: Biochemical EGFR kinase assay (Lance Ultra TR-FRET), triple mutant L858R/T790M/C797S
Condition Parameters: Km ATP; read-out: IC50 L858R/T790M/C797S (nM) Km ATP
Experimental: Biochemical EGFR kinase assays were conducted using Lance Ultra time-resolved fluorescence resonance energy transfer (TR-FRET) technology from Perkin-Elmer. […] Each kinase reactions were incubated at room temperature for 1 hour and then stopped by the addition of 4 μL of stop solution (10 mM EDTA). […] After 60 minutes incubation at room temperature the LANCE signal was measured on an EnVision Multilabel Reader (Perkin-Elmer). […]
Readout Label: IC50 (nM)

I. CN(C)Cc1cnc(-c2cnc(Nc3ccnc(-c4cnn(S(=O)(=O)C5CC5)c4)n3)cc2N[C@H]2CC[C@@](C)(O)CC2)cn1
II. C[C@]1(O)CC[C@@H](Nc2cc(Nc3ccnc(-c4cnn(S(=O)(=O)C5CC5)c4)n3)ncc2-c2cc(C(F)F)ccn2)CC1
III. C[C@]1(O)CC[C@@H](Nc2cc(Nc3ccnc(-c4cnn(S(=O)(=O)C5CC5)c4)n3)ncc2-c2ncccc2OCC(F)F)CC1
Task: Order field: IC50 | Direction: descending (largest first) Would you mind listing the labels in the order asked for?
Output: III, II, I
(III: 1.4 nM, II: 0.9 nM, I: 0.1 nM)

* * *

Measured On: EGFR L858R/C797S (Homo sapiens, UniProt P00533, C797S/L858R)
Sequence (P00533 25-1210 C797S/L858R): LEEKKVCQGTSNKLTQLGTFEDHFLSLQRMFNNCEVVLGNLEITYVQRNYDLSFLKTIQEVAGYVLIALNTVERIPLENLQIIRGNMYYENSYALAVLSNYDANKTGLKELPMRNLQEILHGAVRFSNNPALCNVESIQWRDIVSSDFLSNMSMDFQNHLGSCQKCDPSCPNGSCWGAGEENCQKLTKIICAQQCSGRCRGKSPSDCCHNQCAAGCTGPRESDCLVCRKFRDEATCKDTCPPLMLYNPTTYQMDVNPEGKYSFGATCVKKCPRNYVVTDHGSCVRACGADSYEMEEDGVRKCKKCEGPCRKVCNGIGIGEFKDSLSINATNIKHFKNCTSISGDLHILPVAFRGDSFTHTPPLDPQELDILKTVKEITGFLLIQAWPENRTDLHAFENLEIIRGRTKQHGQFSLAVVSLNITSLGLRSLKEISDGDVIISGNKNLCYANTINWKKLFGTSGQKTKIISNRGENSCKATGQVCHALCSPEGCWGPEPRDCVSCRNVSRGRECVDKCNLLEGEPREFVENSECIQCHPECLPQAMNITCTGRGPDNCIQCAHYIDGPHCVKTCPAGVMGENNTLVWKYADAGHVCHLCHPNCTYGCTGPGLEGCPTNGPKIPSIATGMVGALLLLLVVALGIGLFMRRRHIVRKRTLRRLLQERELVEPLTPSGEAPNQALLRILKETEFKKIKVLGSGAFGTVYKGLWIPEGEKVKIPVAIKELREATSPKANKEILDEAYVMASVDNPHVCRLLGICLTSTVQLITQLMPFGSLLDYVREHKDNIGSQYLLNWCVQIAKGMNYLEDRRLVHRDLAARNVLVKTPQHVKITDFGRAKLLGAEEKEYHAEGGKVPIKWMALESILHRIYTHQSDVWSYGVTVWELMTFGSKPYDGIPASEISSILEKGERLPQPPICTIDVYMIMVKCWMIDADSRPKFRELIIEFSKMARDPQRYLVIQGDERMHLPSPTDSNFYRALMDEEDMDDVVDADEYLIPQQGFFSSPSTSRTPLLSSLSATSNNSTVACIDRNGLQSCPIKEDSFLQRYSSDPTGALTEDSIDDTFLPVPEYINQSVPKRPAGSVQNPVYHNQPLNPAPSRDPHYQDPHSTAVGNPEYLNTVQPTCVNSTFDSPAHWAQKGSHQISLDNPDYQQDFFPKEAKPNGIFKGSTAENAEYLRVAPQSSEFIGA
Experimental Protocol: Biochemical EGFR kinase assay (Lance Ultra TR-FRET), double mutant L858R/C797S
Condition Parameters: IC50 L858R/C797S (nM) 100 μM ATP, 100 μM ATP
Readout Label: IC50 (nM)

Study these solved cases before continuing.
Molecule	IC50 / nM
COC1CN(c2ccc(-c3cnc(Nc4ccnc(-c5cnn(S(=O)(=O)C6CC6)c5)n4)cc3N[C@H]3CC[C@@H](C(C)(C)O)CC3)nc2)C1	78.8
COC1CN(c2ccc(-c3cnc(Nc4ccnc(-c5cnn(S(=O)(=O)C6CC6)c5)n4)cc3N[C@H]3CC[C@@H](CN(C)C)CC3)nc2)C1	2.2
C[C@]1(O)CC[C@@H](Nc2cc(Nc3ccnc(-c4cnn(S(=O)(=O)C5CC5)c4)n3)ncc2-c2cccc(CN3CCOCC3)n2)CC1	26.2
C[C@]1(O)CC[C@@H](Nc2cc(Nc3ccnc(-c4cnn(S(=O)(=O)C5CC5)c4)n3)ncc2-c2cc(C(F)F)ccn2)CC1	14.5
CC(C)(O)[C@H]1CC[C@@H](Nc2cc(Nc3ccnc(-c4cnn(S(=O)(=O)C5CC5)c4)n3)ncc2-c2cc(N3CCC(F)(F)CC3)ccn2)CC1	654

A. CC(C)(O)c1ccnc(-c2cnc(Nc3ccnc(-c4cnn(S(=O)(=O)C5CC5)c4)n3)cc2N[C@H]2CC[C@@H](CO)CC2)c1
B. Cc1ccc(-c2cnc(Nc3ccnc(-c4cnn(S(=O)(=O)C5CC5)c4)n3)cc2N[C@H]2CC[C@@](C)(O)CC2)nc1
Task: Param pair: A , B . Output: the one whose IC50 is numerically greater. API: response body contains the label of the selected item.
Output: B
(B: 6.3 nM, A: 0.4 nM)

* * *

Measured On: EGFR del19/C797S (Homo sapiens, UniProt P00533, C797S/DEL746-750)
Sequence (P00533 with tags, fused parts or gaps DEL746-750/C797S): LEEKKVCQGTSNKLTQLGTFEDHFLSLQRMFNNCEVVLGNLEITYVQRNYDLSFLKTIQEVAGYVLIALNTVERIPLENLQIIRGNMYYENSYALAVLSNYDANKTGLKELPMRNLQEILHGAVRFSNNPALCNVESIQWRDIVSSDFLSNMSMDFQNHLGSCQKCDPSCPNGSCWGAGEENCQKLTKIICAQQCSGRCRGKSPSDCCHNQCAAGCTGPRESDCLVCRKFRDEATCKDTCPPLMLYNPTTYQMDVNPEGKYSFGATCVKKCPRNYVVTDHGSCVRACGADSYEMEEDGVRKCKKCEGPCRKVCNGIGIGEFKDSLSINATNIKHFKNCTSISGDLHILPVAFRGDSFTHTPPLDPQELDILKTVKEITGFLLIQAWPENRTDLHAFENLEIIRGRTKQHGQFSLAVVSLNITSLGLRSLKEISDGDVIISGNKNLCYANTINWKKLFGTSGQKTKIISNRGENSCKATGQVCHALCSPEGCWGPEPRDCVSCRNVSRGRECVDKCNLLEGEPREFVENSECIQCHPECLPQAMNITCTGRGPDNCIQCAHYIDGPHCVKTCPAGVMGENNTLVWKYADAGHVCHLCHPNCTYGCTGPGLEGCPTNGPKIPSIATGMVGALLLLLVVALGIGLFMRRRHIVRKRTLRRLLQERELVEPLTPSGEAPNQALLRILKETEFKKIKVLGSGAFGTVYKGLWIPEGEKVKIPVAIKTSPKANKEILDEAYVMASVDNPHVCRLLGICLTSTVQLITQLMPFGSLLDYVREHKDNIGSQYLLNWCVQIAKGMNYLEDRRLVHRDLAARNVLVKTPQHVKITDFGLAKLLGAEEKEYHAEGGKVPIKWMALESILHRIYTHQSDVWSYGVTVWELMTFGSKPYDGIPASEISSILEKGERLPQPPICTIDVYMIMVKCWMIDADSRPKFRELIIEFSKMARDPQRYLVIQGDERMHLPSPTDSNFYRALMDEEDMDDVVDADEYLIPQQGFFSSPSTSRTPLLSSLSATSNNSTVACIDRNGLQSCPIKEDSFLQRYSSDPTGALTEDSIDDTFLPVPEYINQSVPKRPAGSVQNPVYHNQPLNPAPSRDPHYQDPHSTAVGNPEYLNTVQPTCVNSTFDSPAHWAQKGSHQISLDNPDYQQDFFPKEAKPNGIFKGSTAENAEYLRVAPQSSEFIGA
Experimental Protocol: Biochemical EGFR kinase assay (Lance Ultra TR-FRET), double mutant del19/C797S
Condition Parameters: IC50 del19/C797S, 100 μM ATP
pIC50: −log10 of the molar value.
Readout Label: pIC50

Compound	Obs Value
CC1(O)CCC(Nc2cc(Nc3ccnc(-c4cnn(S(=O)(=O)C5CC5)c4)n3)ncc2-c2cc(CN3CC(O)C3)ccn2)CC1 (stereo not drawn) [Example 288]	9.30

1. O=S(=O)(C1CC1)n1cc(-c2nccc(Nc3cc(N[C@H]4CC[C@@H](NCCF)CC4)c(-c4cccc(F)n4)cn3)n2)cn1 [Example 273]
2. CC1(O)CCC(Nc2cc(Nc3ccnc(-c4cnn(S(=O)(=O)C5CC5)c4)n3)ncc2-c2cc(S(C)(=O)=O)ccn2)CC1 (stereo not drawn) [Example 198]
Task: Given the listed records, identify the one among 1 and 2 with higher pIC50. Refer to your chosen item by its label in the answer.
Output: 1
(1: 9.00, 2: 8.54)

* * *

Measured On: EGFR L858R/T790M/C797S (Homo sapiens, UniProt P00533, C797S/L858R/T790M)
Experimental Protocol: Biochemical EGFR kinase assay (Lance Ultra TR-FRET), triple mutant L858R/T790M/C797S
Condition Parameters: Km ATP; read-out: IC50 L858R/T790M/C797S (nM) Km ATP
Readout Label: IC50 (nM)

Compound	Measured On	IC50 [nM]
CC1(O)CCC(Nc2cc(Nc3ccnc(-c4cnn(S(=O)(=O)C5CC5)c4)n3)ncc2-c2cnc(OC3CCOC3)cn2)CC1 (stereo not drawn) [Example 149]	EGFR L858R/T790M/C797S (Homo sapiens, UniProt P00533, C797S/L858R/T790M)	0.3
CN1CCC(Oc2ccc(-c3cnc(Nc4ccnc(-c5cnn(CC(F)F)c5)n4)cc3NC3CC(F)(F)C3)nc2)CC1 [Example 139]	EGFR L858R/T790M/C797S (Homo sapiens, UniProt P00533, C797S/L858R/T790M)	0.3
C[C@]1(O)CC[C@@H](Nc2cc(Nc3ccnc(-c4cnn(S(=O)(=O)C5CC5)c4)n3)ncc2-c2ccc(N3CCOCC3)nn2)CC1 [Example 43]	EGFR L858R/T790M/C797S (Homo sapiens, UniProt P00533, C797S/L858R/T790M)	0.1

P. C[C@]1(O)CC[C@@H](Nc2cc(Nc3ccnc(-c4cnn(S(=O)(=O)C5CC5)c4)n3)ncc2-c2cnc(CO)cn2)CC1 [Example 60]
Q. CN1CCC(Oc2cnc(-c3cnc(Nc4ccnc(-c5cnn(S(=O)(=O)C6CC6)c5)n4)cc3N[C@H]3CC[C@@H](F)CC3)cn2)CC1 [Example 144]
Task: Two entries are listed, P and Q . Which one carries the higher IC50? Which one? Tell me its label.
Output: P

* * *

Measured On: EGFR L858R/T790M/C797S (Homo sapiens, UniProt P00533, C797S/L858R/T790M)
Experimental Protocol: Biochemical EGFR kinase assay (Lance Ultra TR-FRET), triple mutant L858R/T790M/C797S
Condition Parameters: Km ATP; read-out: IC50 L858R/T790M/C797S (nM) Km ATP
Readout Label: IC50 (nM)

Examples with answers:
Compound	Measured On	Readout Label	Obs Value
CN(C)C[C@H]1CC[C@@H](Nc2cc(Nc3ccnc(-c4cnn(S(=O)(=O)C5CC5)c4)n3)ncc2-c2ccc(C(C)(C)O)nn2)CC1	EGFR L858R/T790M/C797S (Homo sapiens, UniProt P00533, C797S/L858R/T790M)	IC50	0.1
CN1CCC(Oc2ccc(-c3cnc(Nc4ccnc(-c5cnn(S(=O)(=O)C6CC6)c5)n4)cc3NC3CCC(F)(F)C3)nc2)CC1 (stereo not drawn)	EGFR L858R/T790M/C797S (Homo sapiens, UniProt P00533, C797S/L858R/T790M)	IC50	0.2
C[C@]1(O)CC[C@@H](Nc2cc(Nc3ccnc(-c4cnn(S(=O)(=O)C5CC5)c4)n3)ncc2-c2ccc(N3CCC(F)(F)CC3)cn2)CC1	EGFR L858R/T790M/C797S (Homo sapiens, UniProt P00533, C797S/L858R/T790M)	IC50	1
C[C@]1(O)CC[C@@H](Nc2cc(Nc3ccnc(-c4cnn(S(=O)(=O)C5CC5)c4)n3)ncc2-c2ccc(N3CC4(COC4)C3)nn2)CC1	EGFR L858R/T790M/C797S (Homo sapiens, UniProt P00533, C797S/L858R/T790M)	IC50	0.1
CN1CCC(Oc2cnc(-c3cnc(Nc4ccnc(-c5cnn(S(=O)(=O)C6CC6)c5)n4)cc3N[C@H]3CC[C@@](C)(O)CC3)cn2)CC1	EGFR L858R/T790M/C797S (Homo sapiens, UniProt P00533, C797S/L858R/T790M)	IC50	0.03

1. CC(C)Nc1cc(Nc2ccnc(-c3cnn(S(=O)(=O)C4CC4)c3)n2)ncc1-c1ccc(CN2CCOCC2)cn1
2. FC(F)Cn1cc(-c2nccc(Nc3cc(N[C@H]4CC[C@@H](F)CC4)c(-c4ccc(CN5CCOCC5)cn4)cn3)n2)cn1
Task: Could you determine which record has the numerically smaller IC50? Candidates: 1 and 2 Refer to your chosen item by its label in the answer.
Output: 2

a. C[C@]1(O)CC[C@@H](Nc2cc(Nc3ccnc(-c4cnn(S(=O)(=O)C5CC5)c4)n3)ncc2-c2cnc(C(F)(F)F)cn2)CC1
b. CN(C)C[C@H]1CC[C@@H](Nc2cc(Nc3ccnc(-c4cnn(S(=O)(=O)C5CC5)c4)n3)ncc2-c2cc(C(C)(C)O)ccn2)CC1
Task: For the two items a and b , which reports the higher IC50 value? Identify your selection by its label.
Output: a
